Here the recorded hAM1R EC50 (cAMP) is given for each entry.
assayed_system: hAM1R (human, UniProt Q16602)
experiment_description: cell-based or functional assay
Numbered stars: 1 amine (or outer) side, 2 acyl side, 3 side chain; on linkers, the order of the positions; unused ones are H or OH. Bridge positions count the residues as written; N and C are the ends. Square brackets hold non-standard residues; d marks the D form. Ends that are not written are not given here. * marks the point of attachment. C20 diacid = O=C(O)CCCCCCCCCCCCCCCCCCC(=O)*; γGlu = O=C(O)[C@H](CCC(=O)[*:2])N[*:1]; Hyp = O=C(O)[C@@H]1C[C@@H](O)CN1; Cit = NC(=O)NCCC[C@H](N)C(=O)O
measured_property: hAM1R EC50 (cAMP)

>  <binder>
{C20 diacid-γGlu}-GCRFGTCTVQRLAHFLYQFTDKDKDNVAPRTKVGPQGY-NH2 (disulfide 2-7 (inferred); ends not checked) [SEQ ID NO: 392]

>  <result_value>
5.03 nM

$$$$
>  <binder>
KCNTATCTVQ[Cit]LAEQIYQFTDKDKDNVSPPTNVGSNG[Hyp]-NH2 (disulfide 2-7 (inferred); ends not checked) [SEQ ID NO: 266]

>  <result_value>
> 5000 nM

$$$$
>  <binder>
GCRTGTCTVQWLAHQIYQFTDKDKDNVAPRTKVGPQG[Hyp]-NH2 (disulfide 2-7 (inferred); ends not checked) [SEQ ID NO: 349]

>  <result_value>
> 5000 nM

$$$$
>  <binder>
GCRFGTCTVQRLAHQIYQFTDKDKDNVAPRTKVSPQGY [SEQ ID NO: 155]

>  <result_value>
116 nM

$$$$
>  <binder>
GCRFGTCTVQWLAHQIYQFTDKDKDNVAPRSNVSPQGY [SEQ ID NO: 345]

>  <result_value>
113 nM

$$$$
